Assignment: determine reported z-score for the given compounds.
- experiment: basal RPMI8226 viability, no added stimulus, profiling panel, cell-based, calcein-AM fluorescence, 48 h, PK04 Diversity Set (AID 1166);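 note: cells grown under basal conditions without added stimulus; test concentration not given here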
- conditionContext: RPMI8226 myeloma viability, higher = more signal
One number for each entry.

# compound, experimentalValue
data = [
    ("COc1cc(C(O)C2C=CC3C(=O)N(Cc4ccccc4)C(=O)C3N2n2cnnc2)cc(OC)c1OC (configuration not stated)", 1.46),
    ("CCOC(=O)C[C@H]1[C@H](OC(=O)c2ccc(C(=O)c3ccccc3)cc2)[C@@H](NC(=O)CC(C)C)c2cc(OCCCO)ccc2N1C(=O)Cc1ccc(OC)cc1", -0.679),
]

Please state z-score for every compound in the list that follows.
1. C=C/C=C/[C@@H]1C(=C)CN([C@@H](Cc2ccccc2)C(=O)OC)[C@H]1[C@@H](O)Cc1ccccc1
2. O=C1C2C=CC(C(O)c3cc(C(F)(F)F)cc(C(F)(F)F)c3)N(Nc3ccccc3F)C2C(=O)N1c1ccccc1 (configuration not stated)

OUT:
-2.15
-4.08

I have 8 compounds here; please give me z-score for each one.
1. COc1ccc(NC(=O)O[C@H]2[C@@H]3OC(=O)[C@H](Cc4cccc(Br)c4)C/C=C/C[C@@H](Cc4cccc(Br)c4)C(=O)O[C@H]3[C@@H](OC)O[C@@H]2CO)cc1
2. C=CC[C@H](OC(=O)Nc1ccc(SC)cc1)c1ccc(OCCO)cc1
3. COc1ccc([Si](C)(C)[C@@H]2[C@@H](CCn3cc([C@H](O)c4ccccc4)nn3)O[C@]3(C(=O)N(Cc4cccc(N5C(=O)c6cccc7cccc5c67)c4)c4ccccc43)[C@H]2C)cc1
4. COC(=O)C(CC#Cc1ccc2c(c1)[C@]1(C(=O)N2)[C@H](c2ccc(O)cc2)N2[C@H](c3ccccc3)[C@H](c3ccccc3)OC(=O)[C@H]2[C@@H]1C(=O)N1CCCCCCC1)C(=O)OC
5. CS(=O)(=O)CCOC(=O)C1=CC(CCCO)=CC(C2CC2)N(Cc2cccc(OC(F)(F)F)c2)C=C1C(=O)OCCS(C)(=O)=O (configuration not stated)
6. CCCNC(=O)[C@@]1(Sc2ccc(C)cc2)CC(=O)N(C(C)C)[C@@H]1c1ccc(CO)cc1I
7. C[C@@H]1ON(c2ccc(I)cc2)[C@H](c2ccc(OC(=O)OC(C)(C)C)cc2)[C@H]1C(=O)N1C(=O)OC[C@H]1Cc1ccccc1
8. CCN(CC)c1ccc(N2CC=CC34O[C@@H]5C=CCCOC(=O)C5[C@H]3C(=O)N(CCO)[C@@H]4C2=O)cc1 (some centres not stated)

OUT:
1: -0.153; 2: 0.329; 3: -2.11; 4: -2.56; 5: -1.18; 6: -2.09; 7: 0.351; 8: -0.073
